Form field: inhibition (one value per entry).
Target: Dihydroorotate dehydrogenase (quinone), mitochondrial (Homo sapiens)
Test: Inhibition of human DHODH at 100 nM for 30 mins relative to control
Give the quantity in %, number only.

>  <TEST_SMILES>
C/C(O)=C(\C#N)C(=O)Nc1ccc(C(F)(F)F)cc1

>  <TARGET_UNDER_TEST>
Dihydroorotate dehydrogenase (quinone), mitochondrial (Homo sapiens)

>  <VALUE_UNITS>
%

>  <inhibition>
21.5

$$$$

Note: attention shifts to another entry.
input: # query: inhibition of entry `C/C(O)=C(\C#N)C(=O)Nc1cc(F)c(C(=O)c2ccccc2)cc1F`
output: 43.8

----------
Tested on: A-375
Assay: Antiproliferative activity against human A-375 cells incubated for 96 hrs by MTT assay
Assay type: functional, cell-based
Details: A-375, 96 h
Item-by-item account of IC50

>  <TEST_SMILES>
C/C(O)=C(\C#N)C(=O)Nc1cc(O[C@@H](C)C(F)(F)F)c(C(=O)c2ccccc2Cl)cc1F

>  <IC50>
250 nM

$$$$

input: Entry `C/C(O)=C(\C#N)C(=O)Nc1cc(O[C@@H](C)C(F)(F)F)c(C(=O)c2ccccc2F)cc1F` : reported IC50 = ?
output: 950 nM

----------
Tested on: SUD4
Experiment: Antiproliferative activity against human SU-DHL-4 cells incubated for 96 hrs by MTT assay
Type: functional, cell-based
Conditions: SU-DHL-4, 96 h
REPORTED_PROPERTY: IC50 (µM)
Note: unit µM is implicit; provide only the numeric part.

>  <TEST_SMILES>
C/C(O)=C(\C#N)C(=O)Nc1cc(O[C@@H](C)C(F)(F)F)c(C(=O)c2ccccc2Cl)cc1F

>  <IC50 (µM)>
0.75

$$$$

input: Requested read-out: IC50. Entry: `C/C(O)=C(\C#N)C(=O)Nc1cc(O[C@@H](C)C(F)(F)F)c(C(=O)c2ccccc2F)cc1F`
output: 1.65

----------
Entries annotated with measured inhibition
Biological target: Dihydroorotate dehydrogenase (quinone), mitochondrial (Homo sapiens, UniProt Q02127)
Sequence (Q02127 whole entry): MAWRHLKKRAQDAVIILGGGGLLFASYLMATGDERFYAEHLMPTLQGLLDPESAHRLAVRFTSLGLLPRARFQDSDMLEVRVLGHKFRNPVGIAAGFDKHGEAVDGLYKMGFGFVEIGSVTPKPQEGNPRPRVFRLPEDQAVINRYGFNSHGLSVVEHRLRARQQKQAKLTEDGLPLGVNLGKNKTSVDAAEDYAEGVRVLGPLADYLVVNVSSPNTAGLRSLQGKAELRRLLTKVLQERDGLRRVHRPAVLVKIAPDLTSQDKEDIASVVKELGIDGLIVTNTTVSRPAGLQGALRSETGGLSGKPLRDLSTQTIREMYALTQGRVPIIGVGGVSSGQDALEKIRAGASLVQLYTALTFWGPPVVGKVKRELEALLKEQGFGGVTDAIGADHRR
Test: Inhibition of human DHODH at 1 uM for 30 mins relative to control

Known inhibition results, listed for orientation:
>  <TEST_SMILES>
C/C(O)=C(\C#N)C(=O)Nc1cc(O[C@@H](C)C(F)(F)F)c(C(=O)c2ccc(F)cc2)cc1F

>  <inhibition>
91.6%

$$$$
>  <TEST_SMILES>
C/C(O)=C(\C#N)C(=O)Nc1ccc(C(=O)c2ccccc2)cc1F

>  <inhibition>
70.7%

$$$$
>  <TEST_SMILES>
O=C(c1ccccc1)c1ccc(Nc2ncccc2C(=O)O)cc1

>  <inhibition>
80.4%

$$$$

API: the following record is the query input.
input: Look at this molecule and give its reported inhibition. `C/C(O)=C(\C#N)C(=O)Nc1cc(O[C@@H](C)C(F)(F)F)c(C#N)cc1F`
output: 76.3%

----------
Test: Selectivity index ratio of IC50 for human HL7702 cells to IC50 for human Raji cells
Type: toxicity
Conditions: HL7702 cells and Raji cells, read-out: Ratio IC50
REPORTED_PROPERTY: selectivity ratio
# respond with the number and nothing more

>  <TEST_SMILES>
C/C(O)=C(\C#N)C(=O)Nc1cc(O[C@@H](C)C(F)(F)F)c(C(=O)c2ccccc2F)cc1F

>  <selectivity ratio>
21

$$$$

Please examine the following record next.
input: Requested field: selectivity ratio. Item: `C/C(O)=C(\C#N)C(=O)Nc1cc(O[C@@H](C)C(F)(F)F)c(C(=O)c2ccccc2Cl)cc1F`
output: 18.3

----------
Target: Dihydroorotate dehydrogenase (quinone), mitochondrial (Homo sapiens, UniProt Q02127)
Assay: Inhibition of human DHODH at 1 uM for 30 mins relative to control
A collection of compounds and their measured inhibition
Please answer using a numeric value trailed by its unit.

>  <COMPOUND>
C/C(O)=C(\C#N)C(=O)Nc1cc(O[C@@H](C)C(F)(F)F)c(C(=O)c2cccc(F)c2)cc1F

>  <REPORTED_PROPERTY>
inhibition

>  <RESULT>
92.1%

$$$$
>  <COMPOUND>
COc1cccc(C(=O)c2cc(F)c(NC(=O)/C(C#N)=C(/C)O)cc2O[C@@H](C)C(F)(F)F)c1

>  <REPORTED_PROPERTY>
inhibition

>  <RESULT>
92.2%

$$$$
>  <COMPOUND>
O=C(c1ccccc1)c1ccc(Nc2ncccc2C(=O)O)c(Cl)c1

>  <REPORTED_PROPERTY>
inhibition

>  <RESULT>
88.1%

$$$$
>  <COMPOUND>
C/C(O)=C(\C#N)C(=O)Nc1cc(O[C@@H](C)C(F)(F)F)c(C(=O)c2ccccc2)cc1F

>  <REPORTED_PROPERTY>
inhibition

>  <RESULT>
95.3%

$$$$
>  <COMPOUND>
C/C(O)=C(\C#N)C(=O)Nc1ccc(C(=O)c2ccccc2)c(F)c1

>  <REPORTED_PROPERTY>
inhibition

>  <RESULT>
74.1%

$$$$

input: Entry `O=C(c1ccccc1)c1ccc(Nc2ncccc2C(=O)O)c(F)c1` : reported inhibition = ?
output: 86.3%

input: Quick check: inhibition of `C/C(O)=C(\C#N)C(=O)Nc1cc(OC(C)C)c(C(=O)c2ccccc2)cc1F` ?
output: 89.9%

----------
Target: Dihydroorotate dehydrogenase (quinone), mitochondrial (Homo sapiens, UniProt Q02127)
Test: Inhibition of human DHODH at 100 nM for 30 mins relative to control
REPORTED_PROPERTY: inhibition (%)
Number in %, nothing else.

Here are 2 compounds together with their reported answers.
>  <TEST_SMILES>
C/C(O)=C(\C#N)C(=O)Nc1cc(OC(C)C)c(C(=O)c2ccccc2)cc1F

>  <VALUE_UNITS>
%

>  <inhibition>
66.1

$$$$
>  <TEST_SMILES>
C/C(O)=C(\C#N)C(=O)Nc1ccc(C(=O)c2ccccc2)c(F)c1

>  <VALUE_UNITS>
%

>  <inhibition>
31.7

$$$$

Continue with the next compound.
input: Find the recorded inhibition belonging to `C/C(O)=C(\C#N)C(=O)Nc1cc(O[C@@H](C)C(F)(F)F)c(C(=O)c2cccc(F)c2)cc1F` and report it.
output: 59.3

----------
Molecular target: Dihydroorotate dehydrogenase (quinone), mitochondrial (Homo sapiens)
Assay: Inhibition of human DHODH at 1 uM for 30 mins relative to control
Records here are stratified by inhibition; strata: 1: < 80%; 2: ≥ 80% and < 90%; 3: ≥ 90%

>  <TEST_SMILES>
C/C(O)=C(\C#N)C(=O)Nc1cc(F)c(C(=O)c2ccccc2)cc1F

>  <ANSWER_LABEL>
1

$$$$

Now for another entry.
input: Hi, small favor: classify `C/C(O)=C(\C#N)C(=O)Nc1cc(O[C@@H](C)C(F)(F)F)c(C(=O)c2cccc(Cl)c2)cc1F` by its inhibition when you get a moment.
output: 3

----------
Biological target: Dihydroorotate dehydrogenase (quinone), mitochondrial (Homo sapiens)
Experiment: Inhibition of human DHODH at 1 uM for 30 mins relative to control
REPORTED_PROPERTY: inhibition (%)
API: value field is a number in %; no unit string.

>  <COMPOUND>
O=C(c1ccccc1)c1cc(F)c(Nc2ncccc2C(=O)O)c(F)c1

>  <TARGET_UNDER_TEST>
Dihydroorotate dehydrogenase (quinone), mitochondrial (Homo sapiens)

>  <inhibition [%]>
90.4

$$$$

input: Which value of inhibition has been reported for `COc1ccc(C(=O)c2cc(F)c(NC(=O)/C(C#N)=C(/C)O)cc2O[C@@H](C)C(F)(F)F)cc1` in the records?
output: 90

input: If you can, please state the reported inhibition value of CCC(C)Oc1cc(NC(=O)/C(C#N)=C(/C)O)c(F)cc1C(=O)c1ccccc1 (stereo not given) .
output: 90.1

input: Look at this compound and give its reported inhibition. `CCOc1cc(NC(=O)/C(C#N)=C(/C)O)c(F)cc1C(=O)c1ccccc1`
output: 83.1

input: Any idea what inhibition was measured for `C/C(O)=C(\C#N)C(=O)Nc1cc(O[C@@H](C)C(F)(F)F)c(C(=O)c2ccccc2F)cc1F` ?
output: 96.9

input: Bench note: what inhibition did `C/C(O)=C(\C#N)C(=O)Nc1cc(O[C@@H](C)C(F)(F)F)c(C(=O)c2ccc3ccccc3c2)cc1F` show?
output: 90.2

input: inhibition for `C/C(O)=C(\C#N)C(=O)Nc1cc(O[C@@H](C)C(F)(F)F)c(C(=O)c2ccc(Cl)cc2)cc1F` ?
output: 91.3

input: Requested read-out: inhibition. Entry: `C/C(O)=C(\C#N)C(=O)Nc1cc(O[C@@H](C)C(F)(F)F)c(C(=O)c2ccccc2Cl)cc1F`
output: 98.4

input: Reported inhibition, compound `C/C(O)=C(\C#N)C(=O)Nc1ccc(C(=O)c2ccccc2)cc1` : ____
output: 57.3

input: Request the reported inhibition associated with `COc1cc(NC(=O)/C(C#N)=C(/C)O)c(F)cc1C(=O)c1ccccc1`
output: 82.4
